Target: HCV Core 134-171-TT peptide (ALRZ-9 peptide) (HCV-1)
Assay: SPR, captured mAb;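 also: Anti-HCV Core mAbs from hybridoma supernatants held on a rabbit anti-mouse IgG CM5 surface, peptide flowed over 3 min then 4 min dissociation, duplicate concentrations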
experimental-readout: koff (s⁻¹)
Number only, in s⁻¹; omit the unit.

Task: Need koff of HCV 208A-983 (antibody, V domains shown) VH: QGQMQQSGAELVKPGASVKLSCKTSGFTFSSSYFSWLKQKPGQSLEWIAWIYAGTGNTIYNQKFTDKAQLTVDTASSTAFMQLSSLTIEDSAIYYCAISGTGFTYWGQGTLVTVSA VL: DVLMTQTPLSLPVNLGDQASISCRSSQSLLHSNGNTYLEWFLQKPGQSPKLLIYNVSNRFSGVPDRFSGSGSGTDFTLKISRVEAEDLGVYYCFQGSHVPFTFGSGTKLAIKR , thanks.
Output: 4.6e-05

Task: Need koff of HCV 208B-556 (antibody, V domains shown) VH: QLQQSGPVLVKPGASVMISCKTSGYTFTENAMHWVKQSHGKSLEWIGGVNPNNGDTIFNQKFKGKATLTVDKSSSTAFMEFRSLTSEESTVYYCVRRELDFFDYWGQGTSVTVSS VL: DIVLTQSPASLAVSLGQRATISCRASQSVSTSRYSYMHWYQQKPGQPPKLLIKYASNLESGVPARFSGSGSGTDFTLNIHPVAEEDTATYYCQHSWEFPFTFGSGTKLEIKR , thanks.
Output: 0.0006

Task: Need koff of HCV 208A-133 (antibody, V domains shown) VH: QLQQSGPVLVGPGASVMISCKTSGYTFTENAMHWVEQSHGKSLEWIGGVNPNNGDTIFNQKFKGKATLTVDKSSSTAFMEFRSLTSEESTVYYCVRRELDFFDYWGQGTSVTVSS VL: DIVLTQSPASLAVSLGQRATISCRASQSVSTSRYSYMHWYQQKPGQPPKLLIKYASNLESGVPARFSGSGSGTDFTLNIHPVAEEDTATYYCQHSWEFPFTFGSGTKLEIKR , thanks.
Output: 0.0005

Task: Need koff of HCV 208B-589 (antibody, V domains shown) VH: QVQLQQSGAGLAKPGASVKMSCKASGYTFTANKMHWAKQRPGQGLEWIGYIDPSSGYTEYNHKIQDKATLTADTSSSTAYMQLSSLTFEDSAVYYCTNFAYWGQGTLVTVSA VL: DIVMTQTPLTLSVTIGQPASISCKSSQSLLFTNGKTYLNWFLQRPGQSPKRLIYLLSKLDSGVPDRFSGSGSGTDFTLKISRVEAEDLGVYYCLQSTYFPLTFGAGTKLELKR , thanks.
Output: 0.00061

Task: Need koff of HCV 208A-1064 (antibody, V domains shown) VH: EVQLQQSGPELVKPGASVKISCKTSGYTFTEYAMHWMKQSHGKSLEWIGGINPTNGDTIYNQKFKDKAKLTVDRSSSTAYMELRSLTSDDSALFYCARRELDYFASWGQGTTLTVSS VL: DIVLTQSPASLIVSLGQTATISCRASQSVSTSRFSYLHWIQQKPGQPPKLLIKYASNLESGVPVRFSGSGSGTDFTLNIHPVEEEDTATYFCQHSWEFPFTFGSGTKLKIKR , thanks.
Output: 0.00034

Task: Need koff of HCV 208A-741 (antibody, V domains shown) VH: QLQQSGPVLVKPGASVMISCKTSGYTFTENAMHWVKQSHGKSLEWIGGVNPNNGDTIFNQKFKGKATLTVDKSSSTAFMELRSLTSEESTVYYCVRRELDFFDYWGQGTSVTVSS VL: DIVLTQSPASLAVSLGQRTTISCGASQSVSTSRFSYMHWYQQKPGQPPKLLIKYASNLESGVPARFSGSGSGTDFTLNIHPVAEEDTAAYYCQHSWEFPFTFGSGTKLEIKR , thanks.
Output: 0.00069

Task: Need koff of HCV 208B-1096 (antibody, V domains shown) VH: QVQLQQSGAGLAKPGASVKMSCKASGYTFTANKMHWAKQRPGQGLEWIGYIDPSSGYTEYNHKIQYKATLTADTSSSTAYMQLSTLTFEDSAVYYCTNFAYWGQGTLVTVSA VL: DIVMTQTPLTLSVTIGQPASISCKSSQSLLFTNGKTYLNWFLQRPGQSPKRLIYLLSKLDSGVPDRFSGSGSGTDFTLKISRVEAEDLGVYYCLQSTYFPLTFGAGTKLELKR , thanks.
Output: 0.0006

Task: Need koff of HCV 208B-612 (antibody, V domains shown) VH: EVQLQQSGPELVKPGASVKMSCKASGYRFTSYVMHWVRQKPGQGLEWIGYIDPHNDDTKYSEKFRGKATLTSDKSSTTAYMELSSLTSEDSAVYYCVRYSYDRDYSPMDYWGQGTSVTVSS VL: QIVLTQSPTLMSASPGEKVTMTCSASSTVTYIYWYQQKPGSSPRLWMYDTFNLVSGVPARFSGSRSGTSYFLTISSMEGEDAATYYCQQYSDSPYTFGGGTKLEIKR , thanks.
Output: 6.5e-05

Task: Need koff of HCV 208A-222 (antibody, V domains shown) VH: EVQLQQSGPELEKPGASVRISCKTSGYTFTEYAMHWVKQSHGKSLEWIGGINPNNGNAIYNQIFKDKATLTVDRSSSTAYMGLRSLTFGDSGVYFCVRRQLDYFDYWGQGASLTVSS VL: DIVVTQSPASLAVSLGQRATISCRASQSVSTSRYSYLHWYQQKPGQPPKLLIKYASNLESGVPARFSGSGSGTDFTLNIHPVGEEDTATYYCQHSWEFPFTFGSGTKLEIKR , thanks.
Output: 0.00035
